Recorded values, source the supplement of paper PMC6658780.

System: Escherichia coli ATCC BAA-2469
run-description: percent growth inhibition of drug + antibiotic vs DMSO control; higher = more growth inhibition
protocol-conditions: antibiotic (0.125x MIC): gentamicin; 7 µM
# percent growth inhibition values compiled below
Answer by giving the amount and then stating its unit.

Would you please look over these solved cases?
>  <molecule>
Oc1c(I)cc(Cl)c2cccnc12

>  <assay-metric>
percent growth inhibition

>  <result>
12.9%

$$$$
>  <molecule>
Cc1cc(/C=C/c2ccc3cc(N(C)C)ccc3[n+]2C)c(C)n1-c1ccccc1 [Pyrvinium pamoate]

>  <assay-metric>
percent growth inhibition

>  <result>
13.6%

$$$$
>  <molecule>
CC(=O)c1ccc2c(c1)N(CCCN1CCC(CCO)CC1)c1ccccc1S2

>  <assay-metric>
percent growth inhibition

>  <result>
2.86%

$$$$
>  <molecule>
CO[C@H]1/C=C/O[C@@]2(C)Oc3c(C)c(O)c4c(O)c(c5c(nc6cc(C)ccn65)c4c3C2=O)NC(=O)/C(C)=C\C=C\[C@H](C)[C@H](O)[C@@H](C)[C@@H](O)[C@@H](C)[C@H](OC(C)=O)[C@@H]1C

>  <assay-metric>
percent growth inhibition

>  <result>
68.8%

$$$$
>  <molecule>
Oc1c(Cl)cc(Cl)c2cccnc12

>  <assay-metric>
percent growth inhibition

>  <result>
40%

$$$$

# input Name the recorded percent growth inhibition of the item O=C1NCCN1c1ncc([N+](=O)[O-])s1 in your answer.
# output 30.9%

# input Name the recorded percent growth inhibition of the item Cc1c(N(C)C)c(=O)n(-c2ccccc2)n1C in your answer.
# output 0.636%

# input Name the recorded percent growth inhibition of the item COc1ccc2c(c1)c(CC(=O)OCC(=O)O)c(C)n2C(=O)c1ccc(Cl)cc1 in your answer.
# output 2.64%

---

System: Klebsiella pneumoniae NCTC-13439
run-description: percent growth inhibition of drug + antibiotic vs DMSO control; higher = more growth inhibition
protocol-conditions: antibiotic (0.125x MIC): ciprofloxacin; 7 µM
assay-metric: percent growth inhibition (%)
Only the number, expressed in %, is required.

# input Name the recorded percent growth inhibition of the item Cc1c(F)c(N2CCNC(C)C2)cc2c1c(=O)c(C(=O)O)cn2C1CC1 (configuration not stated) [Grepafloxacin] in your answer.
# output 18.9

# input Name the recorded percent growth inhibition of the item NC(=O)N/N=C/c1ccc([N+](=O)[O-])o1 [Nitrofural] in your answer.
# output 10.1

# input Name the recorded percent growth inhibition of the item COc1c(N2C[C@@H]3CCCN[C@@H]3C2)c(F)cc2c(=O)c(C(=O)O)cn(C3CC3)c12 [Moxifloxacin] in your answer.
# output 25.8

# input Name the recorded percent growth inhibition of the item O=c1[nH]c(=O)n([C@H]2C[C@H](O)[C@@H](CO)O2)cc1F [Floxuridine] in your answer.
# output 64.6

# input Name the recorded percent growth inhibition of the item C#C[C@]1(OC(C)=O)CC[C@H]2[C@@H]3CCC4=CC(=NO)CC[C@@H]4[C@H]3CC[C@@]21CC (mixture of isomers) [Norgestimate] in your answer.
# output -7.59

# input Name the recorded percent growth inhibition of the item CO[C@H]1/C=C/O[C@@]2(C)Oc3c(C)c(O)c4c(O)c(c5c(nc6cc(C)ccn65)c4c3C2=O)NC(=O)/C(C)=C\C=C\[C@H](C)[C@H](O)[C@@H](C)[C@@H](O)[C@@H](C)[C@H](OC(C)=O)[C@@H]1C [Rifaximin] in your answer.
# output -1.2

# input Name the recorded percent growth inhibition of the item CCN1CCN(c2cc3c(cc2F)c(=O)c(C(=O)O)cn3C2CC2)CC1 [Enrofloxacin] in your answer.
# output 7.59
